Test system: NCI-H1944
assayText: relative viability (nuclei count vs DMSO), 5 days (fraction); higher = more cells survive
testParameters: first compound 1 µM
measuredEndpoint: relative viability
Numbers only.

Record excerpt, results attached:
[
  {
    "compound": "CCN(CC)CCCCNc1ncc2cc(-c3cc(OC)cc(OC)c3)c(NC(=O)NC(C)(C)C)nc2n1 + N=C(N)NC(=N)NCCc1ccccc1 [Phenformin] (partner 250 µM)",
    "testResult": 0.16
  },
  {
    "compound": "O=c1cc(N2CCOCC2)oc2c(-c3cccc4c3sc3ccccc34)cccc12 + COc1cc2c(Oc3ccc(NC(=O)C4(C(=O)Nc5ccc(F)cc5)CC4)cc3F)ccnc2cc1OCCCN1CCOCC1 [Foretinib] (partner 0.25 µM)",
    "testResult": 0.821
  },
  {
    "compound": "CCN(CC)CCCCNc1ncc2cc(-c3cc(OC)cc(OC)c3)c(NC(=O)NC(C)(C)C)nc2n1 + NC(=O)Nc1cc(-c2cccc(F)c2)sc1C(=O)N[C@H]1CCCNC1 [AZD7762] (partner 0.2 µM)",
    "testResult": 0.494
  },
  {
    "compound": "O=c1cc(N2CCOCC2)oc2c(-c3cccc4c3sc3ccccc34)cccc12 + C[C@@H](Oc1cc(-c2cnn(C3CCNCC3)c2)cnc1N)c1c(Cl)ccc(F)c1Cl [Crizotinib] (partner 1 µM)",
    "testResult": 1.04
  },
  {
    "compound": "CCN(CC)CCCCNc1ncc2cc(-c3cc(OC)cc(OC)c3)c(NC(=O)NC(C)(C)C)nc2n1 + CC(=O)Nc1cccc(-n2c(=O)n(C3CC3)c(=O)c3c(Nc4ccc(I)cc4F)n(C)c(=O)c(C)c32)c1 [Trametinib] (partner 0.02 µM)",
    "testResult": 0.401
  }
]

Attention now shifts to the item below.
Can you share its relative viability? I mean this compound: CCN(CC)CCCCNc1ncc2cc(-c3cc(OC)cc(OC)c3)c(NC(=O)NC(C)(C)C)nc2n1 + CC(=O)c1c(C)c2cnc(Nc3ccc(N4CCNCC4)cn3)nc2n(C2CCCC2)c1=O [Palbociclib] (partner 0.5 µM)
0.278

The measurements presented in this section are drawn from the supplement of paper PMC10307832.
